This listing pairs compounds with measured Ki.
Target: UniProtKB Q8WQX9
Sequence (Q8WQX9 whole entry): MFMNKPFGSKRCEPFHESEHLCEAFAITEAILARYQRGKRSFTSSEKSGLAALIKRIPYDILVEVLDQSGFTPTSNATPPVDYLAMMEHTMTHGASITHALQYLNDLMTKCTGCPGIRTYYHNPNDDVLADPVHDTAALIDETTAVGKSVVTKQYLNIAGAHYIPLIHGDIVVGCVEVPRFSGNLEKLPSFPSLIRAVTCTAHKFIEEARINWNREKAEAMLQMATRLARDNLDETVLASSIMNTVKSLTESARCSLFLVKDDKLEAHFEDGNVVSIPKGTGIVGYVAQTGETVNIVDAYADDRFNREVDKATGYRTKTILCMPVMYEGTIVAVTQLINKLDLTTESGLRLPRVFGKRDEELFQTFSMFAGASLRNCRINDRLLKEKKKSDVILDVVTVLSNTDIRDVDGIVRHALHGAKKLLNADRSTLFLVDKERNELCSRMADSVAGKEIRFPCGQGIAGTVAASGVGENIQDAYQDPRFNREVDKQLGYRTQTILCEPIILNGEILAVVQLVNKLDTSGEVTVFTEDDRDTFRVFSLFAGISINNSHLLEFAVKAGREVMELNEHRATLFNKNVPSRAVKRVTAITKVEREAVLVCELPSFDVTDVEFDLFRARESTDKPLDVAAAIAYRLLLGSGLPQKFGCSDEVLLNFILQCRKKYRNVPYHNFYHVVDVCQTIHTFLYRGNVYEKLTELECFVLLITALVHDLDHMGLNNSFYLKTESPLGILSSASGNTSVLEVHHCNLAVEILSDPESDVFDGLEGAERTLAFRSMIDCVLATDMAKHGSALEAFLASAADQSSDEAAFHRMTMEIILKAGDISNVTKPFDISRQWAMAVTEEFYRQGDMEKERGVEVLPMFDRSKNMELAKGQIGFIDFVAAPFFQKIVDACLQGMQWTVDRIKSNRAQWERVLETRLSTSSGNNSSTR

Data request: Given the entry COc1ccc(C2=NN(C3CCCCCC3)C(=O)[C@@H]3CC=CC[C@H]23)cc1-c1ccc(C(=O)NCC(=O)NC(C)C)cc1 (relative stereo) , report its measured Ki.
Data returned: 2000 nM

Data request: Try the compound COc1ccc(C2=NN(C3CCCCCC3)C(=O)[C@@H]3CC=CC[C@H]23)cc1-c1ccc(C(=O)NCC(=O)NCCO)cc1 (relative stereo)
Data returned: 398 nM

Data request: Try the compound COc1ccc(C2=NN(C3CCCCCC3)C(=O)[C@@H]3CC=CC[C@H]23)cc1-c1ccc(C(=O)NCCNC(C)=O)cc1 (relative stereo)
Data returned: 794 nM

Data request: Try the compound COCCNC(=O)c1ccc(-c2cc(C3=NN(C4CCCCCC4)C(=O)[C@@H]4CC=CC[C@H]34)ccc2OC)cc1 (relative stereo)
Data returned: 316 nM

Data request: Try the compound COc1ccc(C2=NN(C3CCCCCC3)C(=O)[C@@H]3CC=CC[C@H]23)cc1-c1ccc(C(=O)N(C)CC(N)=O)cc1 (relative stereo)
Data returned: 398 nM

Data request: Try the compound COc1ccc(C2=NN(C3CCCCCC3)C(=O)[C@@H]3CC=CC[C@H]23)cc1-c1ccc(C(=O)NCCC(N)=O)cc1 (relative stereo)
Data returned: 501 nM

New cases:
Data request: Given the entry COc1ccc(C2=NN(C3CCCCCC3)C(=O)[C@@H]3CC=CC[C@H]23)cc1-c1cccc(C(=O)O)c1 (relative stereo) , report its measured Ki.
Data returned: 7940 nM

Data request: Try the compound COc1ccc(C2=NN(C3CCCCCC3)C(=O)[C@H]3CC=CC[C@@H]23)cc1-c1ccc(C(=O)NCC(N)=O)cc1
Data returned: 3980 nM

Data request: Try the compound COc1ccc(C2=NN(C3CCCCCC3)C(=O)[C@@H]3CC=CC[C@H]23)cc1-c1ccc(C(=O)O)cc1 (relative stereo)
Data returned: 1580 nM

Data request: Try the compound COc1ccc(C2=NN(C(C)C)C(=O)[C@@H]3CC=CC[C@H]23)cc1-c1ccc(C(=O)NCC(N)=O)cc1 (relative stereo)
Data returned: 100 nM

Data request: Try the compound O=C(Nc1c(Cl)cncc1Cl)c1ccc(OC(F)F)c(OCC2CC2)c1 [ROFLUMILAST]
Data returned: 3160 nM

Data request: Try the compound COc1ccc(C2=NN(C3CCCCCC3)C(=O)[C@@H]3CC=CC[C@H]23)cc1-c1ccc(C(N)=O)cc1 (relative stereo)
Data returned: 158 nM

Data request: Try the compound CNC(=O)CNC(=O)c1ccc(-c2cc(C3=NN(C4CCCCCC4)C(=O)[C@@H]4CC=CC[C@H]34)ccc2OC)cc1 (relative stereo)
Data returned: 398 nM
